Sourced from PubChem BioAssay AID1259415

Assign activity change, negative = inhibition to each entry below.
experimental.protocol: qHTS Assay for inhibitors of the human cytomegalovirus (HCMV); further: on the % scale 0 is the no-effect control and ±100 the full control effect
condition.parameters: HFF cells, HCMV-luciferase reporter, 72 h; at 57.5 µM; stronger effect = lower value
About 18,000 (4.4%) of roughly 410,000 compounds were called active. Roughly 7% stayed inconclusive and do not appear here. For the sample, actives were picked, then their nearest neighbours and some compounds at random.
Give bare numbers, in %.

Recorded activity change, negative = inhibition, per entry:
* COc1ccc(C(C)(O)c2nc(-c3cc(F)cc(F)c3)cs2)cc1 (configuration not stated) | -96
* CN(CC(=O)Nc1ccccc1F)S(=O)(=O)c1ccc2c(c1)c(=O)n(C)c(=O)n2C | 3.4
* CCc1ccccc1NC(=O)CN(C)S(=O)(=O)c1ccc2c(c1)c(=O)n(C)c(=O)n2C | 14.6
* COc1ccc(S(=O)(=O)N2C[C@H]3CON(C)[C@H]3C[C@H]2c2cccc(Br)c2)cc1 | -8.56
* O=C(CSc1nc(=O)n2ccccc2n1)Nc1ccc2c(c1)OCCO2 | -0.0406
* COC(=O)c1cc(S(=O)(=O)N2CCN(c3cc(C)ccc3C)CC2)c[nH]1 | 9.83

Q) Field request: activity change, negative = inhibition | item: "COc1ccc(C)cc1-n1c(-c2ccc(C)cc2)cc2c1CC(C)(C)CC2=O"
A) 5.24
